Please find below IC50 data on UniProtKB P00742 compiled from the literature.

Some entries whose results are on file:
So for CC(C)C[C@H](NC(=O)NCc1ccccc1)C(=O)N[C@H](C(=O)N[C@@H](CCCNC(=N)N)C(=O)c1nccs1)C(C)C , the logged IC50 turned out to be > 20000 nM

So for CC(=N)NCc1cccc(-c2ccc(C(=O)Nc3ccc(Cl)cc3C(=O)Nc3ccc(Cl)cn3)cc2)c1 , the logged IC50 turned out to be 4.4 nM

So for N=C(N)c1ccc(CNC(=O)Cn2c(-c3cccc(N)c3)c(Cl)nc(NC3CCC3)c2=O)cc1 , the logged IC50 turned out to be > 100000 nM

So for Cc1cn2cc(N/C(=N\C#N)N[C@H]3CCCCN(CC(=O)N4CCCC4)C3=O)ccc2n1 , the logged IC50 turned out to be > 34000 nM

Could you now look at the following molecule, please?
So for CO[C@H]1O[C@H](COS(=O)(=O)O)[C@@H](O[C@@H]2O[C@@H](C(=O)O)[C@@H](O[C@@H]3O[C@H](COS(=O)(=O)O)[C@@H](O[C@@H]4O[C@H](C(=O)O)[C@@H](O[C@H]5O[C@H](COS(=O)(=O)O)[C@@H](O)[C@H](O)[C@H]5N)[C@H](O)[C@H]4O)[C@H](OS(=O)(=O)O)[C@H]3N)[C@H](O)[C@H]2OS(=O)(=O)O)[C@H](O)[C@H]1NS(=O)(=O)O , the logged IC50 turned out to be 967 nM
